Data origin: paper PMC10392864

# Tested on: H460 (lung) cells
# assay_method_text: Cytotoxicity, SRB method, H460
# Type: cell-based, human
readout_name: IC50 (µM)
Dear colleague, please return just the value in µM, with no unit written.

Record CC(C)(O)[C@@H](O)[C@H]1C[C@@H]([C@@H]2CC[C@]3(C)C4=CC[C@H]5C(C)(C)C(=O)CC[C@]5(C)[C@H]4CC[C@@]23C)[C@H](O)O1 [Compound 11, melianodiol] , field IC50: 73.2

====

The entries below are paired with their reported pIC50.
# Tested on: HepG2 (hepatocellular) cells
# assay_method_text: Cytotoxicity, SRB method, HepG2
# Assay type: cell-based, human
The quantity pIC50 is defined as the negative base-10 logarithm of the molar concentration.

Completed entries (count: 2):
[
  {
    "compound": "COC(=O)CC1C2(C)CC34OC5(C)OC6(C7CC(=O)OC(c8ccoc8)C7(C)CCC6(O5)C13C)C(OC(=O)C(C)C)C4(O)C2OC(=O)C(C)C (stereo not drawn) [Compound 5, phragmalin, 3, 30-di-isobutyrates]",
    "measured_target": "HepG2 (hepatocellular) cells",
    "pIC50": 4.11
  },
  {
    "compound": "CC(C)(O)[C@@H](O)[C@H]1C[C@@H]([C@@H]2CC[C@]3(C)C4=CC[C@H]5C(C)(C)C(=O)CC[C@]5(C)[C@H]4CC[C@@]23C)[C@H](O)O1 [Compound 11, melianodiol]",
    "measured_target": "HepG2 (hepatocellular) cells",
    "pIC50": 4.10
  }
]

Let's switch to this compound now.
pIC50 measured on CC(C)(O)C1OCC(C2CCC3(C)C4=CCC5C(C)(C)C(=O)CCC5(C)C4CCC23C)CC1O (stereo not drawn) [Compound 6, bourjotinolone A] = 4.23
